Cited source for all entries: PubChem BioAssay

assay: inhibition of 3D7 malaria parasite growth – strain 3D7 (AID 2306);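 further: 0% = DMSO wells and 100% = chloroquine plus artemisinin control wells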; conditions: P. falciparum 3D7 erythrocytic growth, LDH absorbance, 72 h; at 2 µM; stronger effect = higher value
Provide the reported growth inhibition of each item.
Numbers only, in %.

>  <Compound>
O=C(Nc1ccc(-c2cccc(-c3nc4ccc(C(F)(F)F)cc4[nH]3)c2)cc1)c1ccoc1

>  <Unit name>
%

>  <Value reported>
96

$$$$
>  <Compound>
COc1cc2ccccc2c(CON2C(N)=NC(N)=NC2(C)C)c1OC

>  <Unit name>
%

>  <Value reported>
96

$$$$
>  <Compound>
Cc1ccc(CNC(=O)c2cnc(N3CCN(c4ccncc4)CC3)c(Cl)c2)cc1

>  <Unit name>
%

>  <Value reported>
92

$$$$
>  <Compound>
O=C(/C=C/c1ccc(Cl)c(Cl)c1)NCCCCCN1CCCC(c2c[nH]c3ccccc23)C1 (stereo not given)

>  <Unit name>
%

>  <Value reported>
99

$$$$
>  <Compound>
COc1ccc(CCN2CCC(CN(C)Cc3cnn(-c4ccccc4)c3)CC2)cc1

>  <Unit name>
%

>  <Value reported>
90

$$$$
>  <Compound>
Cc1ccc(NC(=O)c2ccc(CN3CCCN(Cc4cccc(C#N)c4)CC3)cc2)cc1F

>  <Unit name>
%

>  <Value reported>
98

$$$$
>  <Compound>
CN1CCc2ccc(NC(=O)Nc3cccc(C(=O)c4ccccc4)c3)cc2C1

>  <Unit name>
%

>  <Value reported>
83

$$$$
>  <Compound>
COc1ccc(CCNCCCCCCNCCc2ccc(Cl)c(Cl)c2)cc1OC

>  <Unit name>
%

>  <Value reported>
101

$$$$
>  <Compound>
CC1(C)C[C@@H]2C[C@@](C)(CN2C(=O)c2cc(C(C)(C)C)nn2Cc2ccccc2)C1

>  <Unit name>
%

>  <Value reported>
86

$$$$

# ---- query compound ----
// growth inhibition lookup, key: COc1ccc2cc(C(C)NC3CCN(c4cccc(NC(=O)c5ccncc5)c4)CC3)ccc2c1 (stereo not given) 91
